Numbers sourced from paper PMC9814779.

biological target: human PPARγ ligand-binding domain (Gal4 chimera) (Homo sapiens, UniProt P37231); construct: coding for the hinge region and LBD of the canonical isoform of the respective nuclear receptor; expressed in transfected cells; host or cells: HEK293T; experiment: Gal4 hybrid reporter gene assay, PPARγ; format: cell-based; conditions: HEK293T; mean ± SEM, n = 3; read-out: EC50 [μM] PPARγ
Sequence (P37231 238-503 limits assumed, change not shown): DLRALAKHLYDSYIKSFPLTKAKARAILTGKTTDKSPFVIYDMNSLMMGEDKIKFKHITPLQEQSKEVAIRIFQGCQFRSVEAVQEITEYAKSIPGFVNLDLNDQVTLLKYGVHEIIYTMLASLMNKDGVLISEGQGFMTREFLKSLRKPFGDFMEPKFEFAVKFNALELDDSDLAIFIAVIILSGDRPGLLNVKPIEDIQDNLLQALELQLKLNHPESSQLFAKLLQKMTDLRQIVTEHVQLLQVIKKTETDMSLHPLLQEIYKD
Reported metric: EC50 (µM)
Dear colleague, please return just the value in µM, with no unit written.

COc1ccc(C(=O)Nc2cccc(NCC(=O)O)c2)c(NC(=O)c2ccc(-c3ccoc3)cc2)c1 [compound 40]; 7.7

Could you tell me which EC50 is on file for O=C(O)CCc1cccc(NC(=O)c2ccccc2NC(=O)c2ccc(-c3ccccc3)cc2)c1 [compound 30] ?
1.6

Next compound up: O=C(O)CNc1cccc(NC(=O)c2ccccc2NC(=O)c2ccc3ccccc3c2)c1 [compound 14]
5.7

Next compound up: O=C(O)CCc1cccc(NC(=O)c2ccccc2NC(=O)c2ccc(-c3cnco3)cc2)c1 [compound 38]
5.3
